Assay: AUC (infinity) in Sprague-Dawley rat at 50 mg/kg
Format: ADME, organism-based
Set-up: time infinity, dose 50 mg/kg
Details: in vivo
Reported Metric: AUC(0-inf) (µg·h/mL)
Report only the number, with the unit µg·h/mL understood.

Reported AUC(0-inf) for `Cc1cc(-c2ccnc(Nc3cnn(C)c3)n2)ccc1CNC(=O)N1CC(OC(C)C)C1` was 376

---

Assay: Kinetic solubility of compound at pH 6.8 by shake flask method
Type: physicochemical
Settings: buffer, read-out: Kinetic_solubility
Reported Metric: solubility kinetic

get_value(item= `Cc1cc(-c2ccnc(Nc3ccncc3)n2)ccc1CNC(=O)c1cnc(C(C)(C)C)s1` , readout=solubility kinetic) returns < 0.1 µg/mL

solubility kinetic reported for this compound Cc1cc(-c2ccnc(Nc3cnn(C)c3)n2)ccc1CNC(=O)N1CCC(C(C)(C)C)C1 (stereo not given) : < 10 µg/mL

solubility kinetic measured on `Cc1cc(-c2ccnc(Nc3cnn(C)c3)n2)ccc1CNC(=O)c1nnc(C(C)(C)C)s1` = < 10 µg/mL

The reported solubility kinetic of the compound Cc1cc(-c2ccnc(Nc3cnn(C)c3)n2)ccc1CNC(=O)C1CCC(C(C)(C)C)C1 (stereo not given) was < 10 µg/mL

The recorded solubility kinetic for `Cc1cc(-c2ccnc(N)n2)ccc1CNC(=O)c1cnc(C(C)(C)C)s1` is 13 µg/mL

Given item `Cc1cc(-c2ncnc3[nH]ccc23)ccc1CNC(=O)c1ccc(C(C)(C)C)cc1` , the value recorded as its solubility kinetic is < 1 µg/mL

The compound identified as `Cc1cc(-c2ccnc(Nc3ccn(C)n3)n2)ccc1CNC(=O)c1cnc(C(C)(C)C)s1` registered its solubility kinetic at < 0.1 µg/mL

Notebook: `Cc1cc(-c2ccnc(Nc3cnn(C)c3)n2)ccc1CNC(=O)N1CC(CC(C)C)C1` , solubility kinetic read as < 10 µg/mL

The reported value for `Cc1cc(-c2cc(N)ncn2)ccc1CNC(=O)c1cnc(C(C)(C)C)s1` in terms of solubility kinetic is 6 µg/mL

// recorded solubility kinetic for `Cc1cc(-c2ccnc(Nc3conc3C)n2)ccc1CNC(=O)c1cnc(C(C)(C)C)s1` : 0.12 µg/mL

---

Experiment: Oral bioavailability in dog at 5 mg/kg
Format: ADME, organism-based, Canis lupus familiaris
Settings: in vivo
Reported Metric: bioavailability (%)
Use % as the unit, but write only the number.

Measured bioavailability, `Cc1cc(-c2ccnc(Nc3cnn(C)c3)n2)ccc1CNC(=O)N1CC(OC(C)C)C1` : 26

---

Test: Cmax in dog at 5 mg/kg, po
Type: ADME, organism-based, Canis lupus familiaris
Parameters: route oral, dose 5 mg/kg
Settings: in vivo
Reported Metric: Cmax (ng/mL)
Kindly answer with a numeric value in ng/mL, unit omitted.

Reported Cmax ( `Cc1cc(-c2ccnc(Nc3cnn(C)c3)n2)ccc1CNC(=O)N1CC(OC(C)C)C1` ) = 652

---

Test: Lipophilicity, log D of compound at pH 7.4 by shake flask method
Assay type: physicochemical
Conditions: buffer
Reported Metric: logD
// return just the number, without any unit appended

Lookup result for `Cc1cc(-c2ccnc(Nc3cnn(C)c3)n2)ccc1CNC(=O)N1CC(OC(C)C)C1` ; measured logD: 2.92

---

Kindly supply the reported pIC50 values for the records listed here.
Target: Tyrosine-protein kinase BTK (Homo sapiens, UniProt Q06187)
Sequence (Q06187 whole entry): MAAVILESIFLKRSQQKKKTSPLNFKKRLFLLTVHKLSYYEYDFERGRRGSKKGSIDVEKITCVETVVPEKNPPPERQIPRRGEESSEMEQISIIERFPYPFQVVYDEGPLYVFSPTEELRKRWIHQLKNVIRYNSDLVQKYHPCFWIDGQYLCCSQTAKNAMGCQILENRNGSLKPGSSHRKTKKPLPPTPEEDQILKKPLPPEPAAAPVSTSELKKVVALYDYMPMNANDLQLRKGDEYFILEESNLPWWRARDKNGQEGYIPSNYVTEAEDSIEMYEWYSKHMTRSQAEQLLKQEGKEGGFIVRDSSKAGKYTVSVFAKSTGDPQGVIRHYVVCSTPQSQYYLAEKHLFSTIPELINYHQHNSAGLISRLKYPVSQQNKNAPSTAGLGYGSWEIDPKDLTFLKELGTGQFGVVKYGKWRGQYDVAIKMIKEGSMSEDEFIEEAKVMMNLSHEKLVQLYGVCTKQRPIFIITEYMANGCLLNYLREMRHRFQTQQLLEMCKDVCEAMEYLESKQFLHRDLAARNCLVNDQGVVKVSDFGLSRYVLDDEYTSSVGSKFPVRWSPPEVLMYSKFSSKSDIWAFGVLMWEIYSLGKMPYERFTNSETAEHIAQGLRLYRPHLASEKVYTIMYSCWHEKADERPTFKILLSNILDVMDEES
Assay: Inhibition of recombinant human full-length N-terminal His6-tagged BTK expressed in baculovirus infected Sf21 insect cells using fluorescein-labeled polyGAT peptide substrate measured after 30 mins by TR-FRET assay
Interpret pIC50 as the negative base-10 log of the concentration measured in mol/L.

pIC50 measured on `Cc1cc(-c2ccnc(Nc3conc3C)n2)ccc1CNC(=O)c1cnc(C(C)(C)C)s1` = 8.77

Per the records, this compound ( Cc1cc(-c2ccnc(Nc3cnn(C)c3)n2)ccc1CNC(=O)C1CCC(C(C)(C)C)C1 (centres undefined) ) has pIC50 equal to 8.70

Field pIC50 (entry `Cc1cc(-c2ccnc(Nc3ccn(C)n3)n2)ccc1CNC(=O)c1cnc(C(C)(C)C)s1` ) reads 8.68

pIC50 recorded for this compound, `Cc1cc(-c2ccnc(Nc3ccccn3)n2)ccc1CNC(=O)c1cnc(C(C)(C)C)s1` , is 7.49

Form: compound = `O=C(NCc1ccc(-c2ncnc3[nH]ccc23)cc1)c1ccccc1` ; pIC50 = 5.43

The compound identified as `Cc1cc(-c2ccnc(Nc3ccncc3)n2)ccc1CNC(=O)c1cnc(C(C)(C)C)s1` registered its pIC50 at 9.40

Short answer for `Cc1cc(-c2ccnc(Nc3cnn(C)c3)n2)ccc1CNC(=O)c1nnc(C(C)(C)C)s1` : pIC50 was 8.70

Per the records, this compound ( `CCc1cc(-c2ncnc3[nH]ccc23)ccc1CNC(=O)c1ccc(C(C)(C)C)cc1` ) has pIC50 equal to 7.82

Consider Cc1cc(-c2ccnc(Nc3cnn(C)c3)n2)ccc1CNC(=O)N1CCC(C(C)(C)C)C1 (centres undefined) . Its measured pIC50 is 9.70
